# Protocol: Quantitative High-Throughput drug screen in 47 multiple myeloma cell lines against the NCATS MIPE library collection: VP6_DJ cell viability assay (AID 1919867); also: nearly all actives have a fitted effect of over 40% in size
# Details: ATP luminescence, 48 h; series mostly up to 45.8 µM
Records with an inconclusive call do not appear. Activity calls are given as the source filed them. Calls follow the shape of the dose curve; as a rule, active = well fitted cell-killing curve with a large enough effect; inconclusive = small, poorly fitted or top-dose-only effect, or effect the other way; inactive = no such curve, though single readings can be large or run the other way.
Hi! Could you answer with just one of these? 1.0 = active, 0.0 = inactive

Example results:
NC(=O)c1ccc(N(C(N)=O)c2c(F)cccc2F)nc1-c1ccc(F)cc1F :: 1.0
COc1nccc(-c2c(-c3ccc(F)cc3)ncn2C2CCNCC2)n1 :: 1.0

Ask: Status in this test for CCCC1OC2C[C@@H]3[C@H]4CCC5=CC(=O)C=C[C@]5(C)[C@H]4C(O)C[C@]3(C)[C@]2(C(=O)CO)O1 (some centres undefined) ?
Result: 0.0

Ask: Follow-up entry: C[C@@H](N)c1ccc(C(=O)Nc2ccnc3[nH]ccc23)cc1
Result: 1.0

---

# Protocol: Quantitative High-Throughput drug screen in 47 multiple myeloma cell lines against the NCATS MIPE library collection: KMS11_JCRBsus cell viability assay (AID 1919873); also: nearly all actives have a fitted effect of over 50% in size
# Details: KMS11 myeloma viability, CellTiter-Glo ATP luminescence, 48 h; series mostly up to 45.8 µM
# Source text: PI: Beverly A. Mock Ph.D. Laboratory of Cancer Biology and Genetics, Center for Cancer Research, National Cancer Institute, National Institute of Health, Bethesda, Maryland […] 5; Detector; 425V; Luminescence; Viewlux PerkinElmer. […] 1. […] Briefly, the corresponding myeloma cell lines were screened in 1,536-well plates with 500 cells, 5-uL per well for inhibition of cell viability (assessed by measuring ATP levels with CellTiterGlo). […]
Records with an inconclusive call do not appear. Activity calls are given as the source filed them. Calls come from the whole dose curve; as a rule, active = well fitted cell-killing curve with a large enough effect; inconclusive = small, poorly fitted or top-dose-only effect, or effect the other way; inactive = no such curve, though single readings can be large or run the other way.
Mark one answer only. Choices: active, inactive

Ask: Identify the outcome logged in this assay for the compound shown: CC(C)c1onc(-c2c(Cl)cccc2Cl)c1COc1ccc(C=Cc2cccc(C(=O)O)c2)c(Cl)c1
Result: inactive

Ask: Next compound up: O=S(=O)(NCCNCC=Cc1ccc(Br)cc1)c1cccc2cnccc12
Result: active

Ask: Now consider C[C@H](CCC(=O)O)[C@H]1CC[C@H]2[C@H]3[C@@H](CC[C@]12C)[C@@]1(C)CC[C@@H](O)C[C@H]1C[C@@H]3O and answer again.
Result: inactive

Ask: For COc1ccc(-c2cc(=O)c3c(O)cc(O[C@@H]4O[C@H](CO[C@@H]5O[C@@H](C)[C@H](O)[C@@H](O)[C@@H]5O)[C@@H](O)[C@H](O)[C@@H]4O)cc3o2)cc1O then?
Result: inactive

Ask: Then what about the compound N[C@@H](CC(=O)N1CCn2c(nnc2C(F)(F)F)C1)Cc1cc(F)c(F)cc1F ?
Result: inactive

Ask: // next record NC(=O)c1ccc(N(C(N)=O)c2c(F)cccc2F)nc1-c1ccc(F)cc1F
Result: inactive

Ask: Okay, and O=C1NC(=O)C(c2cnc3ccccn23)=C1c1cn2c3c(cccc13)CN(C(=O)N1CCOCC1)CC2 ?
Result: active

Ask: Similarly, CC(NCCc1ccc(O)cc1)C(O)c1ccc(O)cc1 (stereo not drawn) ?
Result: inactive

---

# Protocol: qHTS profiling of the MIPE4 collection as inhibitors of Plasmodium falciparum (DD2) proliferation (AID 743345)
# Details: P. falciparum Dd2 in erythrocytes, SYBR Green DNA, 72 h; at 28.5 µM (top of the series) unless noted
Assay Endpoint: parasite growth remaining, % of DMSO control (lower = more inhibition) (%)
State just the number; it will be interpreted in %.

Ask: Using the record for COc1ccc(-c2oc3c(CC=C(C)C)c(O)cc(O)c3c(=O)c2O)cc1 , report its parasite growth remaining, % of DMSO control (lower = more inhibition).
Result: 9.79

Ask: Subsequent entry: CCNC(=O)CCCC=CC[C@@H]1[C@H](C=CC(O)CCc2ccccc2)[C@@H](O)C[C@@H]1O (some centres undefined)
Result: 127

Ask: Now this one: CCCCC[C@H](O)C=C[C@H]1[C@H](O)CC(=O)[C@H]1CC=CCCCC(=O)O
Result: 11.2

Ask: Also check C[C@H]1O[C@@H](n2cc(F)c(=O)[nH]c2=O)[C@H](O)[C@H]1O
Result: 13.5

// provenance: PubChem BioAssay (NCATS)
